target: constitutive proteasome β5c unit (Homo sapiens, UniProt P20618+P28074); test: Caliper-based proteasome enzymatic activity assay, β5c; conditions: human recombinant constitutive proteasome 0.3 nM, FAM-peptide substrate 1 μM, 3 h at rt; read-out: β5c subunit IC50
pIC50: −log10 of the molar value.
quantity: pIC50

P = CC(C)(C=C(C#N)C(=O)N1CCC[C@@H]1COC(=O)N[C@@H](Cc1coc2ccccc12)B(O)O)N1CCOCC1 [Example 40]
Q = CC(C)(C)/C=C(\C#N)C(=O)N1CCNC[C@@H]1COC(=O)N[C@@H](Cc1ccccc1)B(O)O [Example 128]
R = CC(C)(C=C(C#N)C(=O)N1C[C@@H]2C[C@@H]2[C@@H]1COC(=O)N[C@@H](Cc1ccccc1)B(O)O)N1CCC(F)(F)C1 [Example 74]
Sort by pIC50 with smallest numbers at the start of the list. Answer by listing the labels in the order asked for.
Q, R, P

1 = CC(C)(C=C(C#N)C(=O)N1CCCC[C@@H]1COC(=O)N[C@@H](Cc1coc2ccccc12)B(O)O)N1CCC(F)(F)CC1 [Example 66]
2 = C=CC(=O)N1C[C@@H]2C[C@@H]2[C@@H]1COC(=O)N[C@@H](Cc1ccc(C)cc1)B(O)O [Example 95]
Param pair: 1 , 2 . Output: the one whose pIC50 is numerically greater. Pick one; state its label.
1
(1: 6.66, 2: 5.47)
